compounds and their reported Pf_72h_%Growth_Rep2
system: P. falciparum 3D7 parasites; assay: P. falciparum growth inhibition assay, 1-cycle (72 h treatment), SYBR DNA staining (library screen at 2 μg/mL and dose-response); assay type: cell-based, Plasmodium falciparum; conditions: P. falciparum 3D7, 72 h, library screen at 2 μg/mL, % growth, replicate 2
Report only the number, with the unit % understood.

Sample records with Pf_72h_%Growth_Rep2:
CN1CCC2(c3cccc4c3NC3N(C)CCC43C34CCN(C)C3Nc3ccccc34)c3ccccc3NC12 (centres unmarked) :: 0.51
CCCC(=O)OC1C(C)OC(OC2C(C)OC(OC3C(CC=O)CC(C)C(O)C=CC=CCC(C)OC(=O)CC(O)C3OC)C(O)C2N(C)C)CC1(C)O (centres unmarked) :: 78.28
O=C1CCCC2C3CC(CN12)C1CCCCN1C3 (centres unmarked) :: 93.40
CCC(C=CC1OC(=O)C=CC1C)=CC(C)CC=CC(C)=CC(C)C(=O)C(C)C(O)C(C)CC(C)=CC(=O)O (centres unmarked) :: 2.57

Qu. Recall and state the measured Pf_72h_%Growth_Rep2 for Cc1cc(O)cc(=O)o1 .
Ans. 85.31

###

test system: P. falciparum 3D7 parasites; experiment: P. falciparum growth inhibition assay, 1-cycle (72 h treatment), SYBR DNA staining (library screen at 2 μg/mL and dose-response); assay type: cell-based, Plasmodium falciparum; conditions: P. falciparum 3D7, 72 h, library screen at 2 μg/mL, % growth, replicate 1
Outcome label depends on Pf_72h_%Growth_Rep1 relative to 80%: at/above gives Satisfied, below gives Not satisfied.

Solved cases below.
C=C1c2c(Cl)ccc(O)c2C(=O)C2=C(O)[C@]3(O)C(=O)C(C(N)=O)=C(O)[C@@H](N(C)C)[C@@H]3[C@@H](O)[C@H]12 :: Not satisfied
COC1C=CC=C(C)C(=O)NC2=CC(=O)C=C(C2=O)C(OC)C(C)CC(OC)C(OC)C(C)C=C(C)C1OC(N)=O (stereo not shown) :: Not satisfied
O=C1CCCC2C3CC(CN12)C1CCCCN1C3 (stereo not shown) :: Satisfied
CC1(C)OC2CC(=O)OCC23C1CC(=O)C1(C)C3CCC2(C)C(c3ccoc3)OC(=O)C3OC321 (stereo not shown) :: Satisfied
CC(=O)OC1CCC2(C)C(CCC3C2CC(=O)C2(C)C3CC3OC4(CCC(C)CO4)C(C)C32)C1 (stereo not shown) :: Satisfied

Qu. Hi team, for O=c1cc(O)c2nccc3c4ccccc4n1c23 , is the recorded Pf_72h_%Growth_Rep1 at or above 80%?
Ans. Satisfied

Qu. Hi team, for CN1C(=O)[C@]23CC4=CC=C[C@H](O)[C@H]4N2C(=O)[C@@]1(CO)SS3 , is the recorded Pf_72h_%Growth_Rep1 at or above 80%?
Ans. Not satisfied

###

tested on: P. falciparum 3D7 parasites; test: P. falciparum growth inhibition assay, 1-cycle (72 h treatment), SYBR DNA staining (library screen at 2 μg/mL and dose-response); type: cell-based, Plasmodium falciparum; conditions: P. falciparum 3D7, 72 h, library screen at 2 μg/mL, % growth, replicate 2
Outcome label depends on Pf_72h_%Growth_Rep2 relative to 90%: at/above gives Y, below gives N.

COc1ccc(C2CC(=O)c3c(O)cc(OC4OC(COC5OC(C)C(O)C(O)C5O)C(O)C(O)C4O)cc3O2)cc1O (centres unmarked) [BIA-H1766] :: Y
COC1CC(OC2C(C)OC(OC3C(C)=CCC4CC(CC5(CCC(C)C(C(C)C)O5)O4)OC(=O)C4C=C(C)C(O)C5OCC(=CC=CC3C)C45O)CC2OC)OC(C)C1O (centres unmarked) [BIA-I1117] :: Y
CCC(C)C1OC2(CCC1C)CC1CC(CC=C(C)C(OC3CC(OC)C(OC4CC(OC)C(O)C(C)O4)C(C)O3)C(C)C=CC=C3COC4C(O)C(C)C=C(C(=O)O1)C34O)O2 (centres unmarked) [BIA-I1581] :: N
O=c1cc(O)c2nccc3c4ccccc4n1c23 [BIA-H1963] :: Y
O=C1C=CC(=O)c2c(O)cccc21 [BIA-J1739] :: Y

Qu. Hi team, for O=c1cc2ccocc-2o1 [BIA-K1792] , is the recorded Pf_72h_%Growth_Rep2 at or above 90%?
Ans. Y

###

system: T. gondii RH strain (RH-Tub-eYFP) tachyzoites; assay: microbe, parasite or virus in culture; assay type: cell-based, Toxoplasma gondii; settings: Toxoplasma gondii; T. gondii, 72 h, screen at 2 μg/mL, replicate 1; read-out: Tg_72h_%Growth_Rep1
ENDPOINT_LABEL: percent parasite growth at 2 µg/mL (%)
Report only the number, with the unit % understood.

COc1c(C[C@@H](C)OC(=O)Oc2ccc(O)cc2)c2c3c(C[C@@H](C)OC(=O)c4ccccc4)c(OC)c(=O)c4c(O)cc(OC)c(c5c(OC)cc(O)c(c1=O)c52)c43 :: 1
C[C@H]1CCCC(=O)CCC/C=C/c2cc(O)cc(O)c2C(=O)O1 :: 104
CC[C@H](C)[C@@H](OC(C)=O)[C@@H](C)C1=CC(=O)C2=C(O[C@]3(C)CC[C@H]4O[C@@H](C(C)(C)O)CC[C@]4(C)[C@H]3[C@@H]2O)C1=O :: 161
CC(=O)Nc1c2sscc-2n(C)c1=O :: 2.01
COc1ccc2c3c4n(c2c1)[C@H](C=C(C)C)OOC(C)(C)C[C@@H]4N1C(=O)[C@@H]2CCCN2C(=O)[C@]1(O)[C@H]3O :: 92.4
C=C(NC(=O)C(=C)NC(=O)c1csc(C2=N[C@@H]3c4csc(n4)[C@H]4NC(=O)c5csc(n5)[C@H]([C@](C)(O)[C@@H](C)O)NC(=O)[C@H]5CSC(=N5)/C(=C/C)NC(=O)[C@H]([C@@H](C)O)NC(=O)c5csc(n5)[C@]3(CC2)NC(=O)[C@H](C)NC(=O)C(=C)NC(=O)[C@H](C)NC(=O)[C@H]([C@@H](C)CC)N[C@@H]2C=Cc3c([C@H](C)O)cc(nc3[C@H]2O)C(=O)O[C@@H]4C)n1)C(N)=O [thiostrepton, reference compound] :: 86.7

Consider the additional compound presented here.
Qu. Recall and state the measured percent parasite growth at 2 µg/mL for CC(C)[C@@H]1NC(=O)[C@H](C)OC(=O)[C@@H](C(C)C)NC(=O)[C@@H](C(C)C)OC(=O)[C@H](C(C)C)NC(=O)[C@H](C)OC(=O)[C@@H](C(C)C)NC(=O)[C@@H](C(C)C)OC(=O)[C@H](C(C)C)NC(=O)[C@H](C)OC(=O)[C@@H](C(C)C)NC(=O)[C@@H](C(C)C)OC1=O .
Ans. 122

###

system: T. gondii RH strain (RH-Tub-eYFP) tachyzoites; experiment: microbe, parasite or virus in culture; type: cell-based, Toxoplasma gondii; settings: T. gondii RH, 72 h, library screen at 2 μg/mL, % growth, replicate 2
compounds and their reported Tg_72h_%Growth_Rep2
Report only the number, with the unit % understood.

COc1cc(O)c2c(=O)oc3c(O)c(OC)cc(C)c3c2c1 :: 91.52
CC1=C[C@H](O/C=C2/C(=O)O[C@@H]3c4ccccc4C[C@H]23)OC1=O :: 91.67

Qu. Recall and state the measured Tg_72h_%Growth_Rep2 for C=C(C)[C@@H]1CC[C@]2(C)CC[C@]3(C)[C@H](CC[C@@H]4[C@@]5(C)CC[C@H](O)C(C)(C)[C@@H]5CC[C@]43C)[C@@H]12 .
Ans. 91.52

###

system: P. falciparum 3D7 parasites; assay: P. falciparum growth inhibition assay, 2-cycle (120 h treatment), delayed-death screen and dose-response; format: cell-based, Plasmodium falciparum; conditions: P. falciparum 3D7, 120 h, parasite screen at 2 μg/mL, % growth, replicate 2
compounds and their reported Pf_120h_%Growth_Rep2
Report only the number, with the unit % understood.

Sample records with Pf_120h_%Growth_Rep2:
CNC1CC2OC(C)(C1OC)n1c3ccccc3c3c4c(c5c6ccccc6n2c5c31)C(=O)NC4=O (stereo not drawn) [BIA-O1137] :: 15.39
COc1c(-c2ccccc2)c2ccccc2[nH]c1=O [BIA-M1149] :: 123.66
CCCCCCCC(=O)N[C@H]1CCOC1=O [BIA-O1496] :: 138.56

Qu. Recall and state the measured Pf_120h_%Growth_Rep2 for Cc1ncc(-c2c[nH]c3ccccc23)o1 [BIA-P1070] .
Ans. 139.06

Qu. Recall and state the measured Pf_120h_%Growth_Rep2 for CC=C(C)c1c(Cl)c(OC)c(C)c2c1Oc1c(Cl)c(O)c(Cl)c(C)c1C(=O)O2 [BIA-N1157] .
Ans. 141.00

Qu. Recall and state the measured Pf_120h_%Growth_Rep2 for CC1CC=CC=CC=CC=CC(OC2OC(C)C(O)C(N)C2O)CC2OC(O)(CC(O)CC3OC3C=CC(=O)O1)CC(O)C2C(=O)O (stereo not drawn) [BIA-P1210] .
Ans. 79.36

Qu. Recall and state the measured Pf_120h_%Growth_Rep2 for COc1cc2nccc3c4ccccc4n(c1=O)c23 [BIA-M1940] .
Ans. 105.38

Qu. Recall and state the measured Pf_120h_%Growth_Rep2 for CC[C@@H]1CCN[C@H](C(=O)N[C@@H]([C@H]2O[C@H](SC)[C@H](O)[C@@H](O)[C@H]2O)[C@H](C)Cl)C1 [BIA-P1459] .
Ans. 125.61

Qu. Recall and state the measured Pf_120h_%Growth_Rep2 for CCOC(=O)[C@H](Cc1ccccc1)NC(=O)c1cc(Cl)c2c(c1O)C(=O)O[C@H](C)C2 [BIA-O1589] .
Ans. 144.99
